// data source = PubChem BioAssay (NCI)

ASSAY NAME: NCI Yeast Anticancer Drug Screen. Data for the cln2 rad14 strain (AID 165);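 further: 0% = growth equal to vehicle treated cultures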
SETUP CONDITIONS: S. cerevisiae cln2 rad14 strain, at 5.0 µM (retest, dose inferred, filed as 0.5), hits give high values
The panel holds about 79,000 compounds, 15% with a hit somewhere; the sample as a whole holds those more often.
TEST READOUT: growth inhibition (%)
Write the answer as a number in %, unit excluded.

Before answering, review these 6 worked examples.
- COMPOUND: "Cc1nn(CCO)c(=O)c(C#N)c1C"
  UNIT SPEC: "%"
  OBSERVED: -1
- COMPOUND: "O=c1[nH]c(C(F)(F)F)c(F)c(=O)[nH]1"
  UNIT SPEC: "%"
  OBSERVED: 3
- COMPOUND: "Cc1c(N=Nc2cccc(F)c2)c(-c2ccccc2)nn1C(N)=S"
  UNIT SPEC: "%"
  OBSERVED: -5
- COMPOUND: "CCCC/C=C1\\CCC(CN2CCOCC2)C1=O (configuration not stated)"
  UNIT SPEC: "%"
  OBSERVED: 44
- COMPOUND: "OCC1(c2ccccc2)OC1c1ccccc1 (configuration not stated)"
  UNIT SPEC: "%"
  OBSERVED: -66
- COMPOUND: "C1=C(c2ccccc2)C(c2ccccc2)C(c2ccccc2)C/C1=N/OCCN1CCCC1 (configuration not stated)"
  UNIT SPEC: "%"
  OBSERVED: -9

Incoming: Item under review: COC(=O)/C(=C\c1cn(C(C)=O)c2ccccc12)P(=O)(OC)OC . Reported growth inhibition?
Outgoing: 31

Incoming: Item under review: CSc1nnc(CCC(=O)Nc2c(C)cccc2C(C)(C)C)o1 . Reported growth inhibition?
Outgoing: 4

Incoming: Item under review: Cc1ccc(C(=O)C(CN(C)C)CN(C)C)cc1 . Reported growth inhibition?
Outgoing: 17

* * *

ASSAY NAME: NCI Yeast Anticancer Drug Screen. Data for the mlh1 rad18 strain (AID 175)
SETUP CONDITIONS: S. cerevisiae mlh1 rad18 strain growth inhibition; at 50.0 µM
About 79,000 compounds went through this panel and 15% of them were active in at least one assay; those are over-represented in the sample as a whole. Active and inactive are the calls of the source. No stated cut-off is given here; in the data, active means growth inhibition above about 70%; inactive means the rest.
Respond with a class label; see active, inactive

Take a look at these entries with their results.
- MOLECULE: "COc1ccccc1C(=O)Nc1ccc(Cl)c(C(=O)OC(C)C)c1"
  ANSWER LABEL: "inactive"
- MOLECULE: "CC1(C)OC2C(CO)OC(n3ncc(=S)[nH]c3=O)C2O1 (stereo unspecified)"
  ANSWER LABEL: "inactive"

Next molecule, please.
Incoming: GET /call?item= COC(=O)NNc1c([N+](=O)[O-])cnn(-c2ccccc2)c1=O returns the recorded outcome of this test.
Outgoing: inactive

* * *

ASSAY NAME: NCI Yeast Anticancer Drug Screen. Data for the mlh1 rad18 strain (AID 175)
SETUP CONDITIONS: S. cerevisiae mlh1 rad18 strain growth inhibition; at 50.0 µM (retest, dose inferred, filed as 5.0); hits give high values
This is part of a sample that, as a whole, favours compounds with a hit. Of some 79,000 tested, about 15% had one in any assay. Active and inactive are the calls of the source. No stated cut-off is given here; in the data, active means growth inhibition above about 70%; inactive means the rest.
TEST READOUT: growth inhibition

Before answering, review these 5 worked examples.
- COMPOUND: "O=C1/C(=C/c2ccccc2)CN(C(=O)C(F)(F)F)C/C1=C\\c1ccccc1"
  growth inhibition: "92% (active)"
- COMPOUND: "c1ccc2c(c1)Cc1c-2nc2ccccc2c1N1CCOCC1"
  growth inhibition: "98% (active)"
- COMPOUND: "O=[N+]([O-])c1ccc(N/N=C/CCCCCCCCCCBr)c([N+](=O)[O-])c1"
  growth inhibition: "-2% (inactive)"
- COMPOUND: "CCCCCOC(=O)c1ccc(O)cc1"
  growth inhibition: "99% (active)"
- COMPOUND: "c1ccc(-c2c3ccccc3cc3ccc4ccccc4c23)nc1"
  growth inhibition: "43% (inactive)"

Incoming: Item under review: Cc1cc2nc3ccc(N)cc3oc-2cc1=[N+](C)C . Reported growth inhibition?
Outgoing: 92% (active)

Incoming: Item under review: CC(=O)Nc1ccc(N=Cc2cc(Cl)cc(Cl)c2O)cc1 . Reported growth inhibition?
Outgoing: 99% (active)

Incoming: Item under review: O=C1CCSC(=S)N1c1ccccc1C(F)(F)F . Reported growth inhibition?
Outgoing: 99% (active)

Incoming: Item under review: CC(=O)OC1CCC2(C)C3CCC4(C)C(CCC4(Br)C(=O)CBr)C3CC(Br)C2(Br)C1 (configuration not stated) . Reported growth inhibition?
Outgoing: -3% (inactive)

Incoming: Item under review: C/C(=N\NC(=S)Nc1ccc(C)cc1)c1nc2ncccc2[nH]1 . Reported growth inhibition?
Outgoing: 91% (active)

Incoming: Item under review: COC(=O)C1(COCc2ccccc2)CCCC2OC21 (configuration not stated) . Reported growth inhibition?
Outgoing: 10% (inactive)

Incoming: Item under review: C/C(=N/NC(=O)Nc1ccc(N=Nc2ccccc2)cc1)c1cccnc1 . Reported growth inhibition?
Outgoing: 25% (inactive)

* * *

ASSAY NAME: NCI Yeast Anticancer Drug Screen. Data for the sgs1 mgt1 strain (AID 161);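 further: 0% = growth of cultures given vehicle only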
SETUP CONDITIONS: S. cerevisiae sgs1 mgt1 strain, at 5.0 µM (retest, dose inferred, filed as 0.5), hits give high values
This is part of a sample that, as a whole, favours compounds with a hit. Of some 79,000 tested, about 15% had one in any assay.
A collection of molecules and their measured growth inhibition
Write the answer as a number in %, unit excluded.

- MOLECULE: "O=C1CNC(=O)c2cc(Cl)ccc2N1"
  OBSERVED: 34
- MOLECULE: "COC(=O)c1c(C)cccc1C(=O)c1c(C)cc(C)cc1C"
  OBSERVED: -1
- MOLECULE: "Nc1ncnc2nn(C3OC(CO)C(O)C3O)nc12 (stereo not drawn)"
  OBSERVED: -7
- MOLECULE: "CCCCOC(=O)C(C)OC(=O)NNc1ccccc1 (stereo not drawn)"
  OBSERVED: 1
- MOLECULE: "O=C1OC(c2ccccc2)N/C1=C\\c1ccc2c(c1)OCO2 (stereo not drawn)"
  OBSERVED: 22
- MOLECULE: "CCCCCCCCC(=O)Cl"
  OBSERVED: 10
- MOLECULE: "CC(c1ccc2ccccc2c1)c1c(F)cccc1C(=O)O (stereo not drawn)"
  OBSERVED: 0
- MOLECULE: "CC1(c2ccc(O)cc2)CC(C)(c2ccc(O)cc2)C1 (stereo not drawn)"
  OBSERVED: 67

Incoming: Item under review: [O-]c1c2cc(-[n+]3c(-c4ccccc4)cc(-c4ccccc4)cc3-c3ccccc3)cc1CO[C@@H](c1ccccc1)[C@H](c1ccccc1)OCc1cccc(n1)CO[C@@H](c1ccccc1)[C@H](c1ccccc1)OC2 . Reported growth inhibition?
Outgoing: 100

Incoming: Item under review: O=CC(=O)CC(O)CO (stereo not drawn) . Reported growth inhibition?
Outgoing: 4

Incoming: Item under review: NCCOB(c1ccccc1)c1ccccc1 . Reported growth inhibition?
Outgoing: 3

Incoming: Item under review: O=C(Nc1ccc(Cl)cc1)NS(=O)(=O)c1c(-c2ccccc2)oc2ccccc2c1=O . Reported growth inhibition?
Outgoing: 7

Incoming: Item under review: COP(=O)(OC)OCC1OC(n2cnc3c(N)ncnc32)C(O)C1O (stereo not drawn) . Reported growth inhibition?
Outgoing: 0

* * *

ASSAY NAME: NCI Yeast Anticancer Drug Screen. Data for the rad50 strain (AID 155);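 further: 0% = growth of vehicle-only cultures of the same strain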
SETUP CONDITIONS: S. cerevisiae rad50 strain growth inhibition; at 50.0 µM (retest, dose inferred, filed as 5.0)
The panel holds about 79,000 compounds, 15% with a hit somewhere; the sample as a whole holds those more often. Activity calls are given as the source filed them. Rule as the data show it: active = growth inhibition above about 70%; inactive = the rest.
Respond with a class label; see TRUE for active, FALSE for inactive

Take a look at these entries with their results.
- COMPOUND: "Oc1cc(Cc2ccccc2)c(Cc2ccccc2)cc1O"
  ANSWER LABEL: "TRUE"
- COMPOUND: "C=CS(=O)(=O)Cc1ccc(Cl)cc1"
  ANSWER LABEL: "TRUE"
- COMPOUND: "CCN(CC)CCCCCCNc1cc(C)cc2cccnc12"
  ANSWER LABEL: "FALSE"
- COMPOUND: "Cc1ccc(C2(C)CC/C(=N/O)c3cc(C)c(C)cc32)cc1C (centres undefined)"
  ANSWER LABEL: "TRUE"
- COMPOUND: "COc1cc(C(=O)[O][Sn]([c]2ccccc2)([c]2ccccc2)[c]2ccccc2)cc(OC)c1OC"
  ANSWER LABEL: "TRUE"
- COMPOUND: "NC(=O)CC1CCC(c2ccccc2)CC1 (centres undefined)"
  ANSWER LABEL: "FALSE"
- COMPOUND: "Cn1sc2ccccc2c1=S"
  ANSWER LABEL: "TRUE"
- COMPOUND: "C/C(=N/O)c1ccc2c(c1)C(=NO)c1cc(/C(C)=N/O)ccc1-2"
  ANSWER LABEL: "TRUE"

Incoming: GET /call?item= Cc1cccc(N2C(c3ccccc3)c3ccc(C)cc3NS2=O)c1 (centres undefined) returns the recorded outcome of this test.
Outgoing: FALSE

Incoming: GET /call?item= CC(=O)OCC1OC(SSc2ccccc2)C(OC(C)=O)C(OC(C)=O)C1OC(C)=O (centres undefined) returns the recorded outcome of this test.
Outgoing: FALSE

Incoming: GET /call?item= CCn1c2nc(=O)n(C)c(=O)c-2[n+]([O-])c2cc(C)ccc21 returns the recorded outcome of this test.
Outgoing: TRUE

Incoming: GET /call?item= COC(=O)CCC(=O)c1ccc2c(c1)CC1(Cc3ccccc3C1)C2 returns the recorded outcome of this test.
Outgoing: FALSE

Incoming: GET /call?item= CC(C)(C)N1C(=O)C(Cl)(C#N)C1c1ccccc1 (centres undefined) returns the recorded outcome of this test.
Outgoing: FALSE

Incoming: GET /call?item= CCc1cc(CC)c(-c2ccco2)c(COC(=O)NC)c1 returns the recorded outcome of this test.
Outgoing: FALSE

Incoming: GET /call?item= Cc1c(O)ccc2c1OCC(c1ccc(Cl)cc1)C2 (centres undefined) returns the recorded outcome of this test.
Outgoing: TRUE

Incoming: GET /call?item= CCCCN(CCCC)CCNc1ccc(NS(=O)(=O)c2ccccc2)c2sc3ccccc3c(=O)c12 returns the recorded outcome of this test.
Outgoing: TRUE

Incoming: GET /call?item= O=C(/C=N/O)c1c(-c2ccccc2)[nH]c(-c2ccccc2)c1-c1ccccc1 returns the recorded outcome of this test.
Outgoing: TRUE

Incoming: GET /call?item= O=C(O)c1ccccc1-c1c2cc(I)c(=O)c(I)c-2oc2c(I)c(O)c(I)cc12 returns the recorded outcome of this test.
Outgoing: TRUE

Incoming: GET /call?item= COc1ccc(/C(Cl)=C(\C=O)c2ccc(Cl)cc2)cc1OC returns the recorded outcome of this test.
Outgoing: FALSE

Incoming: GET /call?item= CN1C/C(=C\c2ccc(Cl)cc2)C(=O)/C(=C/c2ccc(Cl)cc2)C1 returns the recorded outcome of this test.
Outgoing: TRUE

Incoming: GET /call?item= CCC(N)C(O)C(C)C (centres undefined) returns the recorded outcome of this test.
Outgoing: FALSE

Incoming: GET /call?item= N#CC(C(=O)C(N)=O)c1ccc(Cl)cc1Cl (centres undefined) returns the recorded outcome of this test.
Outgoing: FALSE

Incoming: GET /call?item= COc1cccc(CCCNC(=O)Cc2ccccc2CO)c1 returns the recorded outcome of this test.
Outgoing: FALSE

Incoming: GET /call?item= CN(NC1OC(=O)c2ccccc21)c1ccc(C(F)(F)F)cc1[N+](=O)[O-] (centres undefined) returns the recorded outcome of this test.
Outgoing: FALSE
